Data origin: paper PMC7178833

MEASUREMENT TYPE: melting point

Previously resolved entries follow.
MOLECULE	MEASUREMENT TYPE	READING
C[C@@H](NC(=O)OC(C)(C)C)C(=O)Nc1ccc2c(c1)NC(=O)CC2 (stereo in doubt)	melting point	197 to 198 °C
O=C1CCc2ccc(NC(=O)[C@H](CSc3ccccc3)NC(=O)OCc3ccccc3)cc2N1 (stereo in doubt)	melting point	150 to 151 °C
CSCC[C@H](NC(=O)OCc1ccccc1)C(=O)Nc1ccc2c(c1)NC(=O)CC2 (stereo in doubt)	melting point	137 to 138 °C

IN: Sample CC(C)(C)OC(=O)N[C@H](Cc1ccccc1)C(=O)Nc1ccc2c(c1)NC(=O)CC2 (stereo in doubt) — what was its melting point?
OUT: 180 to 181 °C

IN: Also need CSCC[C@H](NC(=O)OC(C)(C)C)C(=O)Nc1ccc2c(c1)NC(=O)CC2 (stereo in doubt) , thanks.
OUT: 171 to 172 °C

* * *

Observed Ki, system hCA IX (Homo sapiens).
Hi! Could you send only the number? It should be in µM, unit omitted.

COMPOUND	UNIT LABEL	READING
O=C1CCc2ccc(NC(=O)[C@H](CSc3ccccc3)NC(=O)OCc3ccccc3)cc2N1 (stereo in doubt) [Compound 4]	µM	65.4

Next compound, please.
IN: Which measured Ki belongs to CC(C)(C)OC(=O)N[C@H](Cc1ccccc1)C(=O)Nc1ccc2c(c1)NC(=O)CC2 (stereo in doubt) [Compound 2] , tested on hCA IX (Homo sapiens)?
OUT: 41.2

* * *

Assay: DPPH radical scavenging activity
Details: 62.5 μg/ml
Param threshold (2%) applies to Antioxidant activity, %; output YES when value >= threshold, NO when value < threshold.

As a guide, the following entries are already answered.
COMPOUND	LABEL
CSCC[C@H](NC(=O)OCc1ccccc1)C(=O)Nc1ccc2c(c1)NC(=O)CC2 (stereo in doubt) [Compound 5]	YES
O=C1CCc2ccc(NC(=O)[C@H](CSc3ccccc3)NC(=O)OCc3ccccc3)cc2N1 (stereo in doubt) [Compound 4]	YES
C[C@@H](NC(=O)OC(C)(C)C)C(=O)Nc1ccc2c(c1)NC(=O)CC2 (stereo in doubt) [Compound 1]	NO
COc1ccc(O)c(C(C)(C)C)c1 [BHA, reference compound]	YES
Cc1c(C)c2c(c(C)c1O)CC[C@@](C)(CCC[C@H](C)CCC[C@H](C)CCCC(C)C)O2 [α-Toc., α-tocopherol, reference compound]	YES

IN: Decide: is the reported value of Antioxidant activity, % for CC(C)(C)OC(=O)N[C@H](Cc1ccccc1)C(=O)Nc1ccc2c(c1)NC(=O)CC2 (stereo in doubt) [Compound 2] equal to or greater than 2%?
OUT: NO

* * *

Observed pKi, system hCA XII (Homo sapiens).
Please note pKi is a logarithmic value: minus log10 of concentration in mol/L. Answer with that number alone.

Previously resolved entries follow.
MOLECULE	pKi
CSCC[C@H](NC(=O)OCc1ccccc1)C(=O)Nc1ccc2c(c1)NC(=O)CC2 (stereo in doubt)	5.15
CC(C)(C)OC(=O)N[C@H](Cc1ccccc1)C(=O)Nc1ccc2c(c1)NC(=O)CC2 (stereo in doubt)	5.42

Next molecule, please.
IN: Sample O=C1CCc2ccc(NC(=O)[C@H](CSc3ccccc3)NC(=O)OCc3ccccc3)cc2N1 (stereo in doubt) — what was its pKi?
OUT: 5.24
